# measurementDescription: NCI Yeast Anticancer Drug Screen. Data for the mec2-1 strain (AID 157)
# cond: S. cerevisiae mec2-1 strain, at 50.0 µM, hits give high values
The panel holds about 79,000 compounds, 15% with a hit somewhere; the sample as a whole holds those more often.
readoutType: growth inhibition (%)
Supply the numeric figure in %, leaving out any unit text.

The examples below pair each entry with its known result.
{"compound": "O=C(O)C(C(=O)O)C1CCCCC1", "growth inhibition [%]": -20.6}
{"compound": "CC(=S)N=Cc1c(C)[nH]n(-c2ccccc2)c1=O", "growth inhibition [%]": -29.8}
{"compound": "CC(C)(C)C(=O)Nc1ccccc1", "growth inhibition [%]": 17}
{"compound": "O=C(CN1CCCCC1)NC(=O)N/N=C\\c1ccco1", "growth inhibition [%]": 3}
{"compound": "COc1cc2c(cc1OC)C(=O)/C(=C/c1ccc([N+](=O)[O-])cc1)CC2", "growth inhibition [%]": -56.5}

Now for the compound whose growth inhibition we want.
Prompt: Which growth inhibition value belongs to CC(C)C(=O)Nc1nc(OCCc2ccc([N+](=O)[O-])cc2)c2ncn(C3CC(O)C(CO)O3)c2n1 (stereo unspecified) ?
Response: -0.2

###

# measurementDescription: NCI Yeast Anticancer Drug Screen. Data for the bub3 strain (AID 167)
# cond: S. cerevisiae bub3 mutant strain, at 50.0 µM, hits give high values
Compounds without any hit were thinned out: in the full panel of roughly 79,000, 15% have a hit.
readoutType: growth inhibition (%)
Give the quantity in %, number only.

{"compound": "COC(=O)C(C(=O)C(=O)Nc1cccc(OC)c1)c1cnc2ccccc2n1 (centres undefined)", "growth inhibition / %": 6.9}
{"compound": "Cc1cc(N=Cc2cccs2)cc(Cl)c1O", "growth inhibition / %": 41.8}
{"compound": "c1ccc2c(c1)ccc1cccc[n+]12", "growth inhibition / %": -16.7}

# next compound below
Prompt: Value lookup for growth inhibition; key = CCOC(OCC)C(C)(C)OC=O
Response: 10.6

###

# measurementDescription: NCI Yeast Anticancer Drug Screen. Data for the mec2-1 strain (AID 157)
# cond: S. cerevisiae mec2-1 strain, at 50.0 µM, hits give high values
The panel holds about 79,000 compounds, 15% with a hit somewhere; the sample as a whole holds those more often. Calls of active or inactive are those of the source. Rule as the data show it: active = growth inhibition above about 70%; inactive = the rest.
readoutType: growth inhibition

{"compound": "COC(=O)C1(CC(=O)/C=C/c2ccccc2)NC(=S)NC(=O)C1C#N (centres undefined)", "observedValue": "-3.65% (inactive)"}
{"compound": "CC1=NN(C(=O)CC(=O)Nc2ccc(C(=O)O)cc2)C(=O)C1N=Nc1ccc(S(N)(=O)=O)cc1 (centres undefined)", "observedValue": "-15.8% (inactive)"}
{"compound": "Cc1cccc(C)c1N1C(=O)C(=O)C(c2nc3ccccc3s2)C(=Nc2cccc3c(=O)[nH][nH]c(=O)c23)C1=O (centres undefined)", "observedValue": "13.9% (inactive)"}
{"compound": "CC(NC(C)c1ccccc1)c1ccccc1 (centres undefined)", "observedValue": "0.05% (inactive)"}
{"compound": "CCC(=O)C(CC)c1ccccc1 (centres undefined)", "observedValue": "-8% (inactive)"}
{"compound": "O=[N+]([O-])c1ccc(C=NCCO)cc1", "observedValue": "8.55% (inactive)"}

Please find the next compound below.
Prompt: Find the recorded growth inhibition belonging to CCOC(=O)c1nc2cc(C(F)(F)F)ccc2nc1Nc1ccc(OC)c(OC)c1 and report it.
Response: -6.15% (inactive)
